Source: patent US6620828B2

# Target of assay: CDK2/Cyclin A complex (Homo sapiens, UniProt P24941)
# Assay method text: CDK2/Cyclin A assay
# Format: biochemical
# Condition summary: 1.0 μM; combinatorial library compounds
Outcome measure: inhibition at 1 µM (%)
Please give a number only; it is taken to be in %.

## Task inhibition at 1 µM for `CCCCCc1ccc(-c2csc(-c3sc(Nc4ccc(S(N)(=O)=O)cc4)nc3N)n2)cc1` ?
## Result -9.9

## Task Try `CC(C)(C)c1cc(-c2csc(-c3sc(Nc4ccc(S(N)(=O)=O)cc4)nc3N)n2)cc(C(C)(C)C)c1O` next.
## Result 25

## Task Try `CN(C)c1ccc(Nc2nc(N)c(-c3nc(-c4ccc(F)cc4)cs3)s2)cc1` next.
## Result 34.8

## Task Try `CN(C)c1ccc(Nc2nc(N)c(-c3nc(-c4cccc(OC(=O)c5ccccc5)c4)cs3)s2)cc1` next.
## Result 0.6

## Task Try `CN(C)c1ccc(Nc2nc(N)c(-c3nc(-c4ccc(F)cc4F)cs3)s2)cc1` next.
## Result 20.3

## Task Try `CN(C)c1ccc(Nc2nc(N)c(-c3nc(-c4cccc(Br)c4)cs3)s2)cc1` next.
## Result 29

## Task Try Nc1nc(Nc2ccc(S(N)(=O)=O)cc2)sc1-c1nc(C2C=C([N+](=O)[O-])C=CC2)cs1 (stereo not drawn) next.
## Result 17.8

## Task Try `CC(C)c1ccc(Nc2nc(N)c(-c3nc(-c4c(Cl)c(Cl)nc(Cl)c4Cl)cs3)s2)cc1` next.
## Result 12.5

## Task Try `COc1ccccc1-c1csc(-c2sc(Nc3ccc(C(C)C)cc3)nc2N)n1` next.
## Result 6.3

----------
Entries and their measured inhibition at 20 µM follow.
# Target of assay: phosphorylated VEGF-R2Δ50 (FLVK-P) (Homo sapiens, UniProt P35968, DEL940-989/E990V)
# Construct: VEGF-R2Δ50 contains residues 806-939 and 990-1171; made in house; host or cells: baculovirus/insect cells
# Sequence (P35968 with tags, fused parts or gaps DEL940-989/E990V limits assumed): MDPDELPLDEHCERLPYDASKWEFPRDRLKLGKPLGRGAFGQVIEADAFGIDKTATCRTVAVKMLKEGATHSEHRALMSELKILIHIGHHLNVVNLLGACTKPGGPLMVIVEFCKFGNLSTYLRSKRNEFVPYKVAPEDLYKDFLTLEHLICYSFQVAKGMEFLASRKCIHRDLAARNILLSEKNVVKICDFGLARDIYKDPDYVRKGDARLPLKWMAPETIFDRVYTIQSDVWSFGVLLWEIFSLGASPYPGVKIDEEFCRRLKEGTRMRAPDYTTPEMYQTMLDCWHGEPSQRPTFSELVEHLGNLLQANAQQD
# Assay method text: VEGF-R2 coupled spectrophotometric (FLVK-P) assay
# Type: biochemical
# Condition summary: read-out: VEGF % inhibition at 20 μM, 20 μM; combinatorial library compounds
# Method: VEGF-R2 Construct for Assay: This construct determines the ability of a test compound to inhibit tyrosine kinase activity. […] The production of ADP from ATP that accompanies phosphoryl transfer was coupled to oxidation of NADH using phosphoenolpyruvate (PEP) and a system having pyruvate kinase (PK) and lactic dehydrogenase (LDH). The oxidation of NADH was monitored by following the decrease of absorbance at 340 nm (e340=6.22 cm^−1 mM^−1) using a Beckman DU 650 spectrophotometer. […]
Please give a number only; it is taken to be in %.

Some compounds with recorded inhibition at 20 µM:
- Query smiles: "Nc1nc(Nc2ccc(S(N)(=O)=O)cc2)sc1-c1nc(-c2ccc(Cl)c([N+](=O)[O-])c2)cs1"
  Unit: "%"
  Measured result: -2
- Query smiles: "COc1ccc2nc(-c3ccccc3)c(-c3csc(-c4sc(Nc5ccc(S(N)(=O)=O)cc5)nc4N)n3)cc2c1"
  Unit: "%"
  Measured result: 3
- Query smiles: "CC(C)c1ccc(Nc2nc(N)c(-c3nc(-c4ccc(F)cc4)cs3)s2)cc1"
  Unit: "%"
  Measured result: 48
- Query smiles: "COc1cc(OC)c(-c2csc(-c3sc(Nc4ccc(S(N)(=O)=O)cc4)nc3N)n2)c(O)c1Cl"
  Unit: "%"
  Measured result: 29

## Task // lookup inhibition at 20 µM | system=phosphorylated VEGF-R2Δ50 (FLVK-P) (Homo sapiens, UniProt P35968, DEL940-989/E990V) | key= `Cc1cc(-c2csc(-c3sc(Nc4ccc(C(C)C)cc4)nc3N)n2)cc(C)c1O`
## Result 45

## Task Try `CN(C)c1ccc(Nc2nc(N)c(-c3nc(-c4ccc5oc6ccccc6c5c4)cs3)s2)cc1` next.
## Result 27

## Task Try `Cc1c(-c2csc(-c3sc(Nc4ccc(N(C)C)cc4)nc3N)n2)sc2ccccc12` next.
## Result 26

## Task Try `CN(C)c1ccc(Nc2nc(N)c(-c3nc(-c4cc(Br)c(Cl)s4)cs3)s2)cc1` next.
## Result 18

----------
# System: human umbilical vein endothelial cells (HUVEC)
# Assay method text: HUVEC proliferation assay
# Format: cell-based
# Condition summary: Homo sapiens, HUVEC, Table II screening results; 10 nM; crude combinatorial amide library; read-out: % inhibition @ 10 nM
// label = class 1 if inhibition at 0.01 µM is not less than -10%, otherwise class 0

Use the examples below as a reference point.
- Molecule: "CNC(=O)Nc1nc(N)c(-c2nc(-c3cccc(NC(=O)C(O)CC(C)C)c3)cs2)s1 (stereo not drawn)"
  Category: "class 1"
- Molecule: "CNC(=O)Nc1nc(N)c(-c2nc(-c3cccc(NC(=O)/C=C/c4cccc(OC)c4)c3)cs2)s1"
  Category: "class 0"

## Task Answer whether inhibition at 0.01 µM of `CNC(=O)Nc1nc(N)c(-c2nc(-c3cccc(NC(=O)CCN4CCCCC4)c3)cs2)s1` is greater than or equal to -10%.
## Result class 0

## Task Try `CNC(=O)Nc1nc(N)c(-c2nc(-c3cccc(NC(=O)Cc4cccc(OC)c4)c3)cs2)s1` next.
## Result class 0

## Task Try CNC(=O)Nc1nc(N)c(-c2nc(-c3cccc(NC(=O)C4CC4C)c3)cs2)s1 (stereo not drawn) next.
## Result class 1

## Task Try `CNC(=O)Nc1nc(N)c(-c2nc(-c3cccc(NC(=O)c4ccccc4)c3)cs2)s1` next.
## Result class 0

----------
Entries and their measured inhibition at 0.05 µM follow.
# System: human umbilical vein endothelial cells (HUVEC)
# Assay method text: HUVEC proliferation assay
# Assay type: cell-based
# Condition summary: Homo sapiens, HUVEC, 50 nM; crude combinatorial urea library; read-out: Inhibition of HUVEC Proliferation % inhibition @ 50 nM
Please give a number only; it is taken to be in %.

- Compound: "COc1cccc(C(=O)Nc2cccc(-c3csc(-c4sc(NC(=O)NC5CC(C)(C)NC(C)(C)C5)nc4N)n3)c2)c1"
  Outcome measure: "inhibition at 0.05 µM"
  Measured result: 29
- Compound: "COCC(C)NC(=O)Nc1nc(N)c(-c2nc(-c3cccc(NC(=O)c4cccc(OC)c4)c3)cs2)s1 (centres unmarked)"
  Outcome measure: "inhibition at 0.05 µM"
  Measured result: 42
- Compound: "COc1cccc(C(=O)Nc2cccc(-c3csc(-c4sc(NC(=O)NCC(O)CO)nc4N)n3)c2)c1 (centres unmarked)"
  Outcome measure: "inhibition at 0.05 µM"
  Measured result: 42
- Compound: "COc1cccc(C(=O)Nc2cccc(-c3csc(-c4sc(NC(=O)NCC(=O)O)nc4N)n3)c2)c1"
  Outcome measure: "inhibition at 0.05 µM"
  Measured result: 52
- Compound: "COc1cccc(C(=O)Nc2cccc(-c3csc(-c4sc(NC(=O)NC(C)CN(C)C)nc4N)n3)c2)c1 (centres unmarked)"
  Outcome measure: "inhibition at 0.05 µM"
  Measured result: 28

## Task inhibition at 0.05 µM for `COc1cccc(C(=O)Nc2cccc(-c3csc(-c4sc(NC(=O)NCC(=O)NO)nc4N)n3)c2)c1` ?
## Result 37

## Task Try COc1cccc(C(=O)Nc2cccc(-c3csc(-c4sc(NC(=O)NC(C)CO)nc4N)n3)c2)c1 (centres unmarked) next.
## Result 42

## Task Try `COc1cccc(C(=O)Nc2cccc(-c3csc(-c4sc(NC(=O)NCc5cccnc5)nc4N)n3)c2)c1` next.
## Result 105

## Task Try `COc1cccc(C(=O)Nc2cccc(-c3csc(-c4sc(NC(=O)NCCNC(C)=O)nc4N)n3)c2)c1` next.
## Result 77

## Task Try `COc1cccc(C(=O)Nc2cccc(-c3csc(-c4sc(NC(=O)N[C@H]5CC[C@H](O)CC5)nc4N)n3)c2)c1` next.
## Result 21

## Task Try `COc1cccc(C(=O)Nc2cccc(-c3csc(-c4sc(NC(=O)NCCc5ccc(S(N)(=O)=O)cc5)nc4N)n3)c2)c1` next.
## Result 49

## Task Try `COc1cccc(C(=O)Nc2cccc(-c3csc(-c4sc(NC(=O)NCCN5CCNCC5)nc4N)n3)c2)c1` next.
## Result 39

## Task Try `COc1cccc(C(=O)Nc2cccc(-c3csc(-c4sc(NC(=O)NCCN5CCCCC5)nc4N)n3)c2)c1` next.
## Result 25

## Task Try `COc1cccc(C(=O)Nc2cccc(-c3csc(-c4sc(NC(=O)NCCCn5ccnc5)nc4N)n3)c2)c1` next.
## Result 39

## Task Try `COc1cccc(C(=O)Nc2cccc(-c3csc(-c4sc(NC(=O)NC5CCN(Cc6ccccc6)CC5)nc4N)n3)c2)c1` next.
## Result 23

## Task Try `COc1cccc(C(=O)Nc2cccc(-c3csc(-c4sc(NC(=O)NCC(N)=O)nc4N)n3)c2)c1` next.
## Result 25

## Task Try COc1cccc(C(=O)Nc2cccc(-c3csc(-c4sc(NC(=O)NCCCN5CCCCC5C)nc4N)n3)c2)c1 (centres unmarked) next.
## Result 55
